assay.summary: Phase I clinical trial: plasma concentrations after weekly intravenous infusion (pharmacokinetics)
Assay type: in vivo, human
condition.notes: human, plasma, iv, 2.7 mg/m^2, Day 1; 2.7 mg/m^2 i.v.; infusion 1 hr; 12 hr after infusion; LLOQ 1 ng/mL
Counter-ions that a name gives are not always drawn.
observed.property: concentration at 12 h after end of infusion

Prompt line: # get_value(readout='concentration at 12 h after end of infusion', item= COc1ccc(N(C)c2nc(C)nc3ccccc23)cc1 [hydrochloride] )
Response line: 2.35 ng/mL

====

assay.summary: Phase I clinical trial: plasma concentrations after weekly intravenous infusion (pharmacokinetics)
Type: in vivo, human
condition.notes: human, plasma, iv, 4.5 mg/m^2, Day 15; 4.5 mg/m^2 i.v.; infusion 2 hr; 1 hr after infusion; LLOQ 1 ng/mL
Counter-ions that a name gives are not always drawn.
observed.property: concentration at 1 h (ng/mL)
Could you give me the number in ng/mL? Just the number is fine.

Prompt line: Requested read-out: concentration at 1 h. Entry: COc1ccc(N(C)c2nc(C)nc3ccccc23)cc1 [hydrochloride]
Response line: 13.6

====

assay.summary: Phase I clinical trial: plasma concentrations after weekly intravenous infusion (pharmacokinetics)
Type: in vivo, human
condition.notes: human, plasma, iv, 3.3 mg/m^2, Day 15; 3.3 mg/m^2 i.v.; infusion 2 hr; 24 hr after infusion; LLOQ 1 ng/mL
Where a name gives a salt, the structure may show the parent alone.
observed.property: concentration at 24 h

Prompt line: Value lookup for concentration at 24 h; key = COc1ccc(N(C)c2nc(C)nc3ccccc23)cc1 [hydrochloride]
Response line: 1.48 ng/mL

====

assay.summary: Phase I clinical trial: plasma concentrations after weekly intravenous infusion (pharmacokinetics)
Format: in vivo, human
condition.notes: human, plasma, iv, 3.3 mg/m^2, Day 15; 3.3 mg/m^2 i.v.; infusion 1 hr; 1 hr after infusion; LLOQ 1 ng/mL
Structures can show the parent of a compound that is named as a salt.
observed.property: concentration at 1 h (ng/mL)
Report as a plain number; the unit ng/mL is understood.

Prompt line: Consider the molecule shown here: COc1ccc(N(C)c2nc(C)nc3ccccc23)cc1 [hydrochloride] What is its recorded concentration at 1 h?
Response line: 14.7

====

assay.summary: Phase I clinical trial: plasma concentrations after weekly intravenous infusion (pharmacokinetics)
Type: in vivo, human
condition.notes: human, plasma, iv, 3.3 mg/m^2, Day 1; 3.3 mg/m^2 i.v.; infusion 2 hr; 24 hr after infusion; LLOQ 1 ng/mL
Counter-ions that a name gives are not always drawn.
observed.property: concentration at 24 h
Param answer (str): number followed by unit.

Prompt line: Value lookup for concentration at 24 h; key = COc1ccc(N(C)c2nc(C)nc3ccccc23)cc1 [hydrochloride]
Response line: 1.73 ng/mL

====

assay.summary: Phase I clinical trial: plasma concentrations after weekly intravenous infusion (pharmacokinetics)
Assay type: in vivo, human
condition.notes: human, plasma, iv, 2.7 mg/m^2, Day 1; 2.7 mg/m^2 i.v.; infusion 1 hr; 6 hr after infusion; LLOQ 1 ng/mL
Procedure: An open-label, dose-escalating, multiple-dose study to define the safety, tolerability and pharmacokinetics of weekly intravenous administration of (4-Methoxy-phenyl)-methyl-(2-methyl-quinazolin-4-yl)-amine hydrochloride was performed. […] Any clinically significant electrocardiographic (ECG) wave form abnormality was recorded and prolongation of the monitoring period extended at the discretion of the principal investigator. […]
Where a name gives a salt, the structure may show the parent alone.
observed.property: concentration at 6 h after end of infusion (ng/mL)
Hi! Could you send only the number? It should be in ng/mL, unit omitted.

Prompt line: Entry under review: COc1ccc(N(C)c2nc(C)nc3ccccc23)cc1 [hydrochloride] . Reported concentration at 6 h after end of infusion?
Response line: 2.09

The reported measurements were obtained from patent US20100087457A1.
